Entries and their measured melting point follow.

Consider the following illustrative entries.
COc1ccc(N=C(S)SC)cc1	111 to 113 °C
O=C(C=Cc1ccccc1)c1ccccc1O	90 °C
CNC(=S)NCO	88 °C
N#CC(=O)c1ccccc1	32.5 °C

Request: Please give the measured melting point for this compound: CC1=NN(CN2CCCCC2)C(=O)/C1=N\Nc1ccc(Cl)cc1Cl
Result: 122 to 124 °C

Request: Again, but for FC(F)(F)c1cccc(CSc2nnc(S)s2)c1
Result: 140 to 142 °C

Request: Query Nc1n[nH]c(N)c1Cc1ccc(Cl)cc1 next
Result: 165 to 167 °C

Request: Now the compound NC(=S)Cc1ccc(Cl)cc1
Result: 129 to 131 °C

Request: Further, for CCOC(=O)C(C/C=C1\OC(=O)C(OC)=C1OC)S(=O)(=O)c1ccccc1 (centres undefined) ?
Result: 99 to 101 °C

###

Some compounds, each annotated with its measured melting point.

Cc1onc(-c2ccccc2)c1CBr	61 to 63 °C
COc1cc(F)ccc1C(=O)O	134 to 136 °C
COc1ccc(C=NN=Cc2ccc(OC)cc2)cc1	167 to 168 °C
Cn1c(C=O)cc2sccc21	63 to 64 °C

Request: Dear colleague, I am looking for the recorded melting point of the following compound: COc1cc2c(cc1OC)C(c1ccc(O)cc1)N(C(C)=O)CC2 (configuration not stated)
Result: 145 to 147 °C

Request: Similarly, Brc1cccc(-c2cnco2)c1 ?
Result: 59 to 61 °C

Request: What do you have for CCOC(=O)c1cnc(NCc2ccccc2)s1 ?
Result: 136 to 143 °C

###

melting point overview

CS(=O)(=O)c1ccc(F)c([N+](=O)[O-])c1	152 to 158 °C
COC(=O)c1ccc(CS(=O)(=O)Cl)cc1	116 to 117 °C
CCOC(=O)CC1Sc2ccccc2NC1=S (configuration not stated)	106 to 108 °C
O=C(C=Cc1ccccc1)c1ccc(O)cc1	174 to 178 °C
O=CC(C=O)c1nc2ccccc2o1	222 to 230 °C

Request: Reported melting point, compound CS(=O)(=O)c1csc(C(=O)O)c1Cl : ____
Result: 234 to 236 °C

Request: Queued: C=CCSc1nc(=O)[nH]c2c1CCCC2
Result: 207 to 209 °C

Request: Could you do the same for Nc1cccnc1Oc1ccccc1F , please?
Result: 87 to 89 °C

###

Measurement Label: melting point

Use these answered entries as a reference point.
CCOC(=O)Nc1ccc(C)cc1[N+](=O)[O-]	64 to 65 °C
Clc1cncc(Cl)c1N1CCNCC1	77 to 80 °C
Nc1cc2ccccc2c(Br)n1	144 to 146 °C

From here, focus on the item given below.
Request: For the molecule O=C(O)C=Cc1ccc(Sc2ccc(Cl)cc2)c([N+](=O)[O-])c1 , what melting point is on record?
Result: 233 to 235 °C

###

Measurement Label: melting point (°C)
Numeric only. Scale: °C

Here's what some known entries look like.
Cc1nc2ccccc2nc1-c1cc(-c2nc3ccccc3nc2C)c([N+](=O)[O-])cc1[N+](=O)[O-]	239
O=C(O)Cc1ccc(I)cc1	138

Request: // returns reported melting point for input O=C(c1ccco1)c1noc(-c2ccc(Br)cc2)c1S(=O)(=O)c1ccccc1
Result: 133

Request: Repeat for the following molecule: CCOC(=O)C(=O)C=P(c1ccccc1)(c1ccccc1)c1ccccc1
Result: 176

Request: O=C1c2ccccc2C(=O)c2c1ccc([N+](=O)[O-])c2[N+](=O)[O-]
Result: 341

Request: Please give the result for c1ccc(CNCc2ccccc2)cc1 too.
Result: -26

###

Listed compounds paired with reported melting point
Number only, in °C; omit the unit.

Cc1ccc2c(c1C)CCC1C2CCC2CCCCC21C (configuration not stated)	156
CC(=NC#N)N(C)Cc1ccc(Cl)nc1	98.9
NC(CCC(=O)O)C(=O)O (configuration not stated)	205
CC(C)(C)OC(=O)c1cc2cc3c4c(c2oc1=O)CCCN4CCC3	171
N#Cc1ccc(C2CCCc3cncn32)cc1 (configuration not stated)	117

We now examine a further compound.
Request: I have this compound here, CC(=O)Cc1c[nH]c2ccccc12 , and I need its recorded melting point.
Result: 116

###

Below, each entry is listed with its recorded melting point.

CC(C)(C)c1cc(C(F)(F)F)nc(N)n1	48 to 50 °C
CC(C)(C)c1cc(C(=O)NN)[nH]n1	177 to 181 °C
NCC(F)C(=O)O (racemic)	222 to 223 °C
Cc1cc(C)c(CC(=O)c2cc3ccccc3o2)c(C)c1	172 to 173 °C
CC=NNc1ccc([N+](=O)[O-])cc1[N+](=O)[O-]	166 °C
CC(C)(C)C(=O)Nc1ccncc1C(=O)O	250 to 254 °C

Request: Endpoint output: melting point of CCOC(=O)c1c(NC(=S)Nc2ccc(Br)cc2)sc2c1CCCC2 . Value?
Result: 204 to 205 °C

Request: Queued: Cc1cc2nsnc2cc1C
Result: 89 to 90 °C

Request: What do we get for CCc1ncc[nH]1 ?
Result: 83 to 87 °C

###

Measurement Label: melting point

Request: Look up melting point: O=C(O)c1c[nH]cn1
Result: 243 to 245 °C

Request: What about O=C(O)Cc1cc(O)c(CC(=O)O)cc1O ?
Result: 234 to 236 °C

Request: Do the same for O=C(O)C=Cc1cccs1 please
Result: 145 to 148 °C

Request: Same question, NNC(=O)c1ccc([N+](=O)[O-])cc1 this time
Result: 210 to 214 °C

Request: Next entry: Clc1ccc(Cc2c(N=Cc3ccc(OCc4ccccc4)cc3)n[nH]c2N=Cc2ccc(OCc3ccccc3)cc2)cc1
Result: 145 to 147 °C

Request: // query: N#Cc1ccc(Oc2ccccc2)cc1
Result: 45 to 48 °C

Request: Can you check O=[N+]([O-])c1cccc(-c2nnc3n2NC(c2ccco2)S3)c1 (stereo not given) next?
Result: 190 °C

Request: Next entry: O=C1c2ccccc2C(O)(O)C1(O)C1(O)C(=O)c2ccccc2C1(O)O (stereo not given)
Result: 240 °C

Request: # iterate: CC(=O)c1ccc(-c2ccc(C(C)=O)cc2)cc1
Result: 192 to 196 °C

Request: Could you do the same for C[C@@H]1C(=O)[C@]23C[C@H]1CC[C@H]2[C@@]1(CCC[C@@]2(C)COC(=O)[C@H]21)COC3=O , please?
Result: 297 °C

###

Measurement Label: melting point

Solved entries (count: 3):
Cn1nc2ccccc2c1C(=O)Cl	89 to 90 °C
COc1ccc(C=CC(=O)Cl)c(Cl)c1OC	86 to 88 °C
COC(=O)c1c(C)oc(C)c1S(=O)(=O)Cl	70 to 71 °C

Request: What does the record list as melting point for Cc1cccc(N)c1N ?
Result: 63.5 °C

###

Measurement Label: melting point

Cc1cc(Br)ccc1S(=O)(=O)Cl	65 to 67 °C
CCOC(=O)C1=C(C)OC(N)=C(C#N)C1c1ccc(N2CCOCC2)cc1 (stereo not drawn)	152 to 159 °C

Request: Which measured melting point value corresponds to Cc1ccc2sc(C(=O)CBr)c(C)c2c1 ?
Result: 123 to 125 °C

###

Parameter: melting point. Scope: all listed entries.

Example cases with answers are listed next.
Nc1ccc2c(c1)CS(=O)(=O)C2	186 to 187 °C
CS(=O)(=O)c1ccc(Br)cc1	102 to 105 °C

In the following, a different compound is considered.
Request: # melting point lookup, item COC(=O)c1ccc(C#Cc2ccccc2)o1
Result: 79 to 82 °C

###

Measured melting point, listed per entry for reference.

N#Cc1cccc(C(=O)Cc2cccc(Oc3ccccc3)c2)c1	63.7 to 65.5 °C
CC(=O)N(c1ccc(C)cc1)c1nc(CCl)cs1	124 to 125 °C
CSc1nc2ccccc2c(=O)n1C	65 to 67 °C

Kindly consider the entry below.
Request: I'd like to know its melting point. The compound in question is CC12CCC3C(CCC45OC4C(=O)C=CC35O)C1CCC2=O (centres undefined)
Result: 201 to 203 °C

###

Measurement Label: melting point

O=C1CCc2ccc(F)cc21	61 to 63 °C
COc1cc(C(c2c(O)cc(C)oc2=O)c2c(O)cc(C)oc2=O)ccc1O	205 to 208 °C
CC(OC(=O)c1ccc([N+](=O)[O-])cc1)c1cccc(C(C)OC(=O)c2ccc([N+](=O)[O-])cc2)c1 (centres undefined)	139 to 145 °C

Let's switch to this compound now.
Request: Which measured melting point value corresponds to Cc1cc(CO)nn1-c1ccccn1 ?
Result: 44 to 46 °C

###

In this section we review reported melting point values for a set of compounds.

COc1ccccc1C1CCN(c2ccc(C=CC(=O)O)cc2[N+](=O)[O-])CC1	204 to 206 °C

Request: Data request, read-out melting point, for CC1=C2C3OC(=O)C(C)C3C(O)CC2(C)C=CC1=O (stereo unspecified)
Result: 203 °C

Request: Now the compound O=Cc1cc(-c2ccco2)on1
Result: 60 to 61 °C

These entries and their values trace back to a melting point compilation (Tetko et al.).
